- Read-out: Vascular cell adhesion molecule 1 (VCAM1), VCAM1 (gene 7412)
- test details: BSK_MyoF_VCAM1: BioMAP Diversity Plus: MyoF Assay for Vascular cell adhesion molecule 1 (VCAM1) Biomarker Activity (AID 2284231)
- setup conditions: primary human lung fibroblasts
The source made the active and inactive calls. Rule for the calls: active = hit-call score of the fitted dose curve at least 0.9, where 1 is the maximum; inactive = score below 0.9.
Outcomes: 1 (yes) = active, 0 (no) = inactive

- molecule: "CCCCCCCCCC(=O)OCC"
  class: "0 (no)"
- molecule: "c1ccc(Sc2ccccc2)cc1"
  class: "1 (yes)"
- molecule: "CC(=O)CCC=C(C)CCC=C(C)C"
  class: "0 (no)"
- molecule: "CC1(C)[C@H](C=C(Cl)Cl)[C@H]1C(=O)OCc1cccc(Oc2ccccc2)c1"
  class: "0 (no)"
- molecule: "NC(=O)c1c(Cl)cccc1Cl"
  class: "0 (no)"
- molecule: "OCCN1CCOCC1"
  class: "0 (no)"
- molecule: "C=C(F)C(=O)OC(C(F)(F)F)C(F)(F)F"
  class: "0 (no)"
- molecule: "O=S1(=O)CC(Cl)(Cl)C(Cl)(Cl)C1"
  class: "1 (yes)"
- molecule: "CC=CC(=O)C1=C(C)C=CCC1(C)C"
  class: "0 (no)"
- molecule: "CCCCCCCC1CCCC1=O (centres undefined)"
  class: "0 (no)"
- molecule: "O=C(O)C(F)(F)C(F)(F)C(F)(F)C(F)(F)C(F)(F)C(F)(F)C(F)(F)C(F)F"
  class: "0 (no)"
- molecule: "CC1=CC(C)C(C=O)C(C)C1 (centres undefined) (tested in a mixture with another compound)"
  class: "0 (no)"
- molecule: "C=CC(=O)OCC(CO)(COC(=O)C=C)COC(=O)C=C"
  class: "1 (yes)"
- molecule: "O=S(=O)(O)C(F)(F)C(F)(F)OC(F)(F)C(F)(F)F"
  class: "0 (no)"

----------
- target under test: Hepatocyte nuclear factor 3-beta (Homo sapiens)
- test details: ATG_FoxA2_CIS: Attagene CIS-FACTORIAL HepG2 Assay for human Forkhead box A2 (FOXA2) (AID 2282942)
- setup conditions: HepG2 cis-reporter transcription factor activity, 24 h; actives raise or lower the signal
Calls of active or inactive are those of the source. The calls were made as follows: active = hit-call score of the fitted dose curve at least 0.9, where 1 is the maximum; inactive = score below 0.9.
Outcomes: active, inactive

- smiles text: "[Na+]"
  class: "inactive"
- smiles text: "CC(C)OB(OC(C)C)OC(C)C"
  class: "inactive"
- smiles text: "CCCCCCCCCCO[C@@H]1O[C@H](CO)[C@@H](O)[C@H](O)[C@H]1O"
  class: "inactive"
- smiles text: "CC1=CCC(=C(C)C)CC1"
  class: "inactive"
- smiles text: "CCCCCCCCCCOC(=O)c1ccccc1C(=O)OCCCCCCCC"
  class: "inactive"
- smiles text: "C=C1CC[C@H]2O[C@]2(C)CC[C@@H]2[C@@H]1CC2(C)C"
  class: "inactive"
- smiles text: "C[C@]12CC[C@@H]3c4ccc(O)cc4CC[C@H]3[C@@H]1CC[C@@H]2O"
  class: "inactive"
- smiles text: "CC(=O)Nc1cc(S(=O)(=O)O)cc2cc(S(=O)(=O)O)c(N=Nc3ccccc3)c(O)c12"
  class: "inactive"
- smiles text: "CCC(C)(C)c1cc(O)c(C(C)(C)CC)cc1O"
  class: "inactive"
- smiles text: "Cc1ccncc1"
  class: "inactive"
- smiles text: "CCCCCCCCCO"
  class: "inactive"
- smiles text: "CC(=O)OCC=C(C)CCC=C(C)CCC=C(C)C"
  class: "active"
- smiles text: "O=C1CCC(=O)N1"
  class: "inactive"
